# Test system: MS2 coat protein
# Method: apparent KD of MS2 coat protein, switch OFF state (with FMN for OFF switches, without FMN for ON switches); designed switch direction (-1 OFF switch, 1 ON switch): 1; higher = weaker reporter binding
# Experimental setup: FMN input: 0 or 200 uM; Eterna round: R93 (includes R88 designs)
Test readout: apparent KD of MS2 coat protein (nM)
Provide only the numeric value, understood in nM.

Given AAAAAACAUGAGGAUCACCCAUGUAAAAAAAACACAGGAUAUCCCUUUUUUAAAUGGGAAGGAGAAGGGUGAAAAA [Nob's Hobby 11 - Jieux - Same State 1] , state its recorded apparent KD of MS2 coat protein.
36.2

Given AAAAACAUGGUGCAGGAUAUAUUAAUAGUCACAUGAGGAUCACCCAUGUUCAUAUAUAUGAACGAGUAGAAGGGCGAUGAAAAAA [Mat - Same state - Malcolm Mod - D110] , state its recorded apparent KD of MS2 coat protein.
541

Given AAUAACAAAAGAAAGGAUAUGCGCACAGGAACAUGAGGAUCACCCAUGUGCCGCCAAGGCGGAUAGCAGAAGGUUCACACGCAUA [Default title] , state its recorded apparent KD of MS2 coat protein.
20.1

Given GAGUACAUAGUACAGGAUAUAUGAAUAGUUACAUGAGGAUCACCCAUGUGCAUUUAUAUGCGCACAUAGAAGGGUGGUAGGUAUC [Mat - Same state - Malcolm Mod - D127] , state its recorded apparent KD of MS2 coat protein.
29.4

Given AAUGAACAUGAGGAUCACCCAUGUUUUAAUAGUUGAGGAUAUAAGGGUGAAAAUAGCACAUUAGAAGGCGAGUGUA [SameState1 Malc#15] , state its recorded apparent KD of MS2 coat protein.
38

Given GGAAAGGAGAGAGAGGAUAUCCAAAGGAAAACAUGAGGAUCACCCAUGUAGAAGGUAGGAAAUUGGGAGAAGGCUCAAGAAAGAG [salish99-ss2-138] , state its recorded apparent KD of MS2 coat protein.
57.2

###

# Test system: MS2 coat protein
# Method: apparent KD of MS2 coat protein; higher = weaker reporter binding
# Experimental setup: Eterna round: R107; input ligand: tryptophan 2.4 mM
I'd be grateful if you could share measured apparent KD of MS2 coat protein for these entries.
Answer format reminder: number followed by unit.

Param readout= apparent KD of MS2 coat protein; system= MS2 coat protein; entry= AUUAAUAGUUGUGAUACCAGACGAACAUGAGGAUCACCCAUGUAACUUUUAGGUGUUGUAGUCCCUUGGCAGCACUAUUUAGUUA [JR_SSTheophyB_Sub014] ; returns value.
33.6 nM

Param readout= apparent KD of MS2 coat protein; system= MS2 coat protein; entry= AUGGAACAUGAGGAUCACCCAUGUGAUGAUACCAGAUUAACGCUUAUCCCUUGGCAGCAUGUCCGCCCUCAACCUGUGGCGUAUU [theeternabot_sameState_MS2_Theo_A_50] ; returns value.
20.3 nM

Param readout= apparent KD of MS2 coat protein; system= MS2 coat protein; entry= AACAUGAGGAUCACCCAUGUUUGCUAUGAAGGAGCGUCGGAAAUGACAGGUAGGUCGCAUGGUAGACCGAGUAUUAUCUGUAUGG [EAA NP+V+V2 #11] ; returns value.
12.1 nM

Param readout= apparent KD of MS2 coat protein; system= MS2 coat protein; entry= CCUAUGCAGUCGGCCGCCACUGAAAUAAAUUAUAUUACCUCAGAAACAUGAGGAUCACCCAUGUACAGGACCGGGACUGUAUAGG [Ex Tryptophan B 15] ; returns value.
56.3 nM

Param readout= apparent KD of MS2 coat protein; system= MS2 coat protein; entry= AGCUCGCAUCCUCUAGCGUCAAAGACGCGUCGAGGACCGGUACGGCCGCCACUCGACUUGAGGAUCACCCAAGUCUAAGCGAGCA [TrypAX 11 #SwitchBubble #AlternativeMS2 #MS2Late #CuTurnoff] ; returns value.
488 nM

###

# Test system: K4 kissing-loop RNA reporter
# Method: apparent KD of K4 kissing-loop reporter; higher = weaker reporter binding
# Experimental setup: Eterna round: R107; input ligand: arginine 13.2 mM
Test readout: apparent KD of K4 kissing-loop reporter (nM)
Provide only the numeric value, understood in nM.

Param readout= apparent KD of K4 kissing-loop reporter; system= K4 kissing-loop RNA reporter; entry= GGCGAAUAAAAUCGCCUAGAGAGAAAGGAUACCAGCACCCGGCGGUGCCCUUGGCAGCCUAGCCCAGUGAUGUUGGGUCCUCUAA [Biaveinbe] ; returns value.
121

Param readout= apparent KD of K4 kissing-loop reporter; system= K4 kissing-loop RNA reporter; entry= AUCAUUGAGUGAUGUUCAAUGGGUUUUCCCAAGGAUAUUCGGAGCUGAAGAAGGUGGCCCUCGAUAUCAGUAUCAACCUGAAAGC [theeternabot_exclusion_KL_FMN_A_11] ; returns value.
340

Param readout= apparent KD of K4 kissing-loop reporter; system= K4 kissing-loop RNA reporter; entry= "GCCGUACGCAUGGAUACCAGUCUAAGAGUGAUGUUCUUACCGAUUGCGCCUGGAUCAUUAGACCCUUGGCAGCCAUGCGUACGGC" ; returns value.
117

Param readout= apparent KD of K4 kissing-loop reporter; system= K4 kissing-loop RNA reporter; entry= CCAUCGCUAUUCGAUACCAGCUAAAUAUAAUAUAACCAGUGAUGUUGGUAUAUAAAUAUAAGCCCUUGGCAGCGAAUAGUGAUGG [Theophylline B K4 30] ; returns value.
107

Param readout= apparent KD of K4 kissing-loop reporter; system= K4 kissing-loop RNA reporter; entry= "GCCGUAGAUGGAAGGAGCGUGGUGGACUCGUGAAGUGAUGUUUCAAGUCGAUAUGCCCAACCACAGGUAGGUCGCCAUCUACGGC" ; returns value.
161

Param readout= apparent KD of K4 kissing-loop reporter; system= K4 kissing-loop RNA reporter; entry= AAAUUUAUUAUAUUUGAAUAAAUAUGUGAUACCAGACAUUUAUAAGUCCCUUGGCAGCACAAUGCAGUGAUGUUGCUUAUAAUAA [JR_SSTheophyA_Sub018] ; returns value.
110

Param readout= apparent KD of K4 kissing-loop reporter; system= K4 kissing-loop RNA reporter; entry= UUUUUGGAGAAUUAUAGUGAUGUUAUGAAGGAGGAUAUCUGGAGAUGGAGAAGGCCUAGUGGCUCAGGGAUGGAGGGUGGGUGGG [ExFMNA.Y] ; returns value.
411

Param readout= apparent KD of K4 kissing-loop reporter; system= K4 kissing-loop RNA reporter; entry= GCAUCGAUGGCAGGAUAUAGGUUCGUGGAGUGAUGUUCCAUAGCCCGAGUGAUGUUCGUUAUCCGCCUAGAAGGGCCGUGGAUGC [whbob_Ex_FMNB__2th215] ; returns value.
210

Param readout= apparent KD of K4 kissing-loop reporter; system= K4 kissing-loop RNA reporter; entry= CGCAGUGAUGUUGCGAAUAUAAUAACGGAAGGAGCGCGUGAAAACGCAGGUAGGUCGCCGAUUGGUAUGAUGGAAACAUCGUACC [Arginine A K4 9] ; returns value.
134

Param readout= apparent KD of K4 kissing-loop reporter; system= K4 kissing-loop RNA reporter; entry= UUUCGUUGAAGUGAUACCAGACUUGAAAGUGAUGUUUUCCAAUAAUUUAAAUUUUUAGCUGUCCCUUGGCAGCACAGUUUAUUUA [JR_Nu_ExcTheophyB_Sub025] ; returns value.
363

Param readout= apparent KD of K4 kissing-loop reporter; system= K4 kissing-loop RNA reporter; entry= UCACGAGUGAUGUUCGUCGCAAUCACCGAAGGAGCGGGCGAAAGCCCAGGUAGGUCGCGGUAGAAUAAUGAUUUUAUUCGAUUGC [Same State Arginine A GF 26] ; returns value.
602

Param readout= apparent KD of K4 kissing-loop reporter; system= K4 kissing-loop RNA reporter; entry= GUCUCAAAAGAGGCAAGCACUAACGAGGACAAGGAUAUCAUCUCAAUGAGAAGGUGUCCUCGUCCUUAGUGAUGUUAAGGAGUGC [Omei KL FMN A SS E v5] ; returns value.
226

Param readout= apparent KD of K4 kissing-loop reporter; system= K4 kissing-loop RNA reporter; entry= AAAUAUUCGAGUGAUGUUCGUUAAAUUACAGAGGAUAUGCUUAAAAGCAGAAGGCUGUAUUUCUAUUUGUUAUGUAAUUUUAAAA [JR_ExcFMNA_Sub004] ; returns value.
209

Param readout= apparent KD of K4 kissing-loop reporter; system= K4 kissing-loop RNA reporter; entry= AGGCACGAGCAAGGAUAUCGAGUAGAGUGAUGUUCUGCCUGGGUUGGCGCGCAAGGGCCUUCCCAGCGAGAAGGUGCUCGUGCCU [#2 Same State - FMN A Attempt #11 (HarryS)] ; returns value.
840

Param readout= apparent KD of K4 kissing-loop reporter; system= K4 kissing-loop RNA reporter; entry= CUCUAACUGAGAAGGAGCGCGAUAUAAACACUCGCACAGUGAUGUUGUGUGUCAAGGGUAUCGCAGGUAGGUCGCUCAGAUACCU [Arg B SS t15] ; returns value.
247

Param readout= apparent KD of K4 kissing-loop reporter; system= K4 kissing-loop RNA reporter; entry= ACCUACGAUCACAAUAGUGAUUGUAGGAACUAGGAUAUGCUGAAAAGCAGAAGGAGUGAUGUUCCAACUCAUGAAUAACAUGAGA [FmnAX 2 #OpenEnded #K4Late] ; returns value.
252

Param readout= apparent KD of K4 kissing-loop reporter; system= K4 kissing-loop RNA reporter; entry= GCUAGUUUGGAAGGAUAUUCGUGCGAUCAAGUCAAACUUUACUGAGGGCGUUUUGGAGUGAUGUUCGAAGAAGGUCCCUUACUUA [theeternabot_exclusion_KL_FMN_B_28] ; returns value.
816

Param readout= apparent KD of K4 kissing-loop reporter; system= K4 kissing-loop RNA reporter; entry= "AAAAUAAUCCAGUGAUGUUGGUCUCCAGAUACCAGCGACGAAAGUCGCCCUUGGCAGCUGUGGACGUACAAAAUAAGUACGUCCU" ; returns value.
416

Param readout= apparent KD of K4 kissing-loop reporter; system= K4 kissing-loop RNA reporter; entry= UGACUGGAUGGAAGGAGCGCUAAACUCCUAGUGAUGUUAGGGACACGAGGCAAAGCCUCGAAGCAGGUAGGUCGCCAUCUAGUCU [FiskerMod 22 - Jieux - Same State - Arginine B] ; returns value.
148

Param readout= apparent KD of K4 kissing-loop reporter; system= K4 kissing-loop RNA reporter; entry= AAGGUAUCACCAACAUUGCAAGAAGGUGAUACCAGCAUCGAAAGAUGCCCUUGGCAGCACCAACUUGCAGUGAUGUUGCAAGUAA [(T)'-(H)'-(T1)-(T2)-(H1)-(H2)_Design8] ; returns value.
210

Param readout= apparent KD of K4 kissing-loop reporter; system= K4 kissing-loop RNA reporter; entry= AAAUGCUUGUAUUUGAACAAUUCCUUUAGGGAGGAUAUUGGUAAUACAAGAAGGCCCUGAUGGGAGUGAUGUUCCCAUAACGCGG [Exclusion FMN A GF16] ; returns value.
95

Param readout= apparent KD of K4 kissing-loop reporter; system= K4 kissing-loop RNA reporter; entry= "ACGUGCACUAGUGAUGUUAGAAAAUACGAAGGAGCGGGCGAAAGCCCAGGUAGGUCGCGUAAUAGCACGAGCCACGAAAGUGGCA" ; returns value.
271

Param readout= apparent KD of K4 kissing-loop reporter; system= K4 kissing-loop RNA reporter; entry= UCUGUACCGGGAAGGAGCGUGAAUGAGAAUGGAUAUAGUGAUGUUAUGUAUACGAACGAAUCGCAGGUAGGUCGCCCGGAUCCCU [SSArgB.aA] ; returns value.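 Also: bound reporter read as fluorescence of individual clusters on recovered sequencing chips by microscopy, with normalized cluster intensities fitted with a binding model.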
380
